The reported measurements were obtained from PubChem BioAssay AID624330.

- measured target: Rac GTPase-activating protein 1 (Homo sapiens) (UniProt Q9H0H5)
- Sequence (Q9H0H5 whole entry, looked up): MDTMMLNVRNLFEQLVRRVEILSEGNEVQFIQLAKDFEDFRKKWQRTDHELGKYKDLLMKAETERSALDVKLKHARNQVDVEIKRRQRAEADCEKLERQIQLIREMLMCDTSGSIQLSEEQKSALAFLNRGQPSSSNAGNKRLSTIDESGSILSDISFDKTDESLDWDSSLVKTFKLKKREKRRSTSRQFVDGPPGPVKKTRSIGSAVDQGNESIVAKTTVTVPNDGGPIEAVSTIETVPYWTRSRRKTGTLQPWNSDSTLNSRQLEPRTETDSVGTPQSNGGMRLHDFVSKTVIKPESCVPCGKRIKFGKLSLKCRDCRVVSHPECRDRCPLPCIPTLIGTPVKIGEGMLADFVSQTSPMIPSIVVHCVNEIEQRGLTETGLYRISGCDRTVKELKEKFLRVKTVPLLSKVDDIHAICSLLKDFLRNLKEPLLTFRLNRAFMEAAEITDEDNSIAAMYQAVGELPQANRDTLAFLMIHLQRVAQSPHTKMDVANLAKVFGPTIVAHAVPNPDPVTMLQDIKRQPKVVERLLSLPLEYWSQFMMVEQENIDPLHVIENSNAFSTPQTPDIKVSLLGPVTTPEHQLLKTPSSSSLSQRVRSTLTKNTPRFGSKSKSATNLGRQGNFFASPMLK
- assay name: blockers of MgcRacGAP-driven Rac1 GTP hydrolysis – biochemical, ADP Hunter fluorescence, primary and confirmatory, confirmation (AID 624330);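 further: fluorescence reports GDP produced by GAP-driven GTP hydrolysis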
- experimental conditions: MgcRacGAP-stimulated Rac1 GTP hydrolysis, at 30 µM, hits give high values, GST-tagged Rac1 F28L mutant substrate
Hit rate of the full screen: of about 340,000 compounds, about 2,100 (0.62%) were called active. These entries were drawn from the full list. Entries with a potency or affinity are not part of this list.
Assignment: determine reported inhibition for the given molecules.
Answers are plain numbers, in %.

Here is how some molecules turned out for inhibition.
COc1ccc(-c2nc(CCl)cs2)cc1OC
1.88
COc1cccc(/C=N/n2c(C3CCCCC3)n[nH]c2=S)c1O
17.5
Cc1ccc(SCC(=O)N2c3ccccc3Sc3ccccc32)cc1
6.99
CCCCCCCCC1=NCCc2c1[nH]c1ccccc21
12.8

Hi there! I need inhibition for each item below, if you can.
1. Cc1ccc([C@@H]2C[C@H]3[C@@H](CN2S(=O)(=O)c2ccc(Cl)cc2)C(=O)C[C@@H](c2ccccc2)N3S(=O)(=O)c2ccc(C)cc2)cc1
2. COc1ccc(/C=N/n2c(-c3ccc(C)cc3)n[nH]c2=S)cc1OC
3. Cc1ccc(F)cc1NC(=O)CCOc1ccccc1
4. Cc1cccc(OCC(=O)Nc2ccc(N3CCN(C(=O)c4ccco4)CC3)cc2)c1C

1: 17.6; 2: 8.75; 3: -2.1; 4: 8.56
